assayNotes: AR‐42 plasma and tissue pharmacokinetics, single oral dose, tumor‐free CD2F1 mice
Type: in vivo, mouse
measurementParameters: 50 mg/kg oral, Muscle
assayEndpoint: Cmax (µM)
The response must be a number in µM with no trailing unit.

Cmax measured on CC(C)[C@H](C(=O)Nc1ccc(C(=O)NO)cc1)c1ccccc1 = 6.37

----------
assayNotes: AR‐42 plasma and tissue pharmacokinetics, single oral dose, tumor‐free CD2F1 mice
Assay type: in vivo, mouse
measurementParameters: 20 mg/kg oral, Muscle
assayEndpoint: Cmax (µM)
Record the value in µM, omitting the unit from your answer.

Lookup result for CC(C)[C@H](C(=O)Nc1ccc(C(=O)NO)cc1)c1ccccc1 ; measured Cmax: 3.66

----------
assayNotes: GTx‐024 plasma pharmacokinetics, LLC tumor‐bearing C57BL/6NHsd mice
Format: in vivo, mouse
measurementParameters: male, C57BL/6NHsd, mouse; single 15 mg/kg oral dose, plasma
assayEndpoint: AUC(0-t) (µg·h/mL)
The answer is to be given in µg·h/mL; state only the numeric part.

Field AUC(0-t) (entry C[C@](O)(COc1ccc(C#N)cc1)C(=O)Nc1ccc(C#N)c(C(F)(F)F)c1 ) reads 721

----------
assayNotes: AR‐42 plasma and tissue pharmacokinetics, single oral dose, tumor‐free CD2F1 mice
Type: in vivo, mouse
measurementParameters: 10 mg/kg oral, Plasma
assayEndpoint: Cmax

Item: CC(C)[C@H](C(=O)Nc1ccc(C(=O)NO)cc1)c1ccccc1 | Cmax: 1500 nM

----------
assayNotes: GTx‐024 plasma pharmacokinetics, LLC tumor‐bearing C57BL/6NHsd mice
Assay type: in vivo, mouse
measurementParameters: male, C57BL/6NHsd, mouse; single 15 mg/kg oral dose, plasma
assayEndpoint: half-life (h)
All answers are understood in h, so give the number only.

The compound C[C@](O)(COc1ccc(C#N)cc1)C(=O)Nc1ccc(C#N)c(C(F)(F)F)c1 showed half-life equal to 18.1

----------
assayNotes: AR‐42 plasma and tissue pharmacokinetics, single oral dose, tumor‐free CD2F1 mice
Type: in vivo, mouse
measurementParameters: 50 mg/kg oral, Plasma
assayEndpoint: Cmax
Remember to put the unit after the number in your answer.

Entry CC(C)[C@H](C(=O)Nc1ccc(C(=O)NO)cc1)c1ccccc1 , Cmax reported as 7.93 µM

Numbers sourced from paper PMC7005646.
